Readings of fraction ligated for the listed variants
B1: F1*; the commonest letter at each place (parent)
chain: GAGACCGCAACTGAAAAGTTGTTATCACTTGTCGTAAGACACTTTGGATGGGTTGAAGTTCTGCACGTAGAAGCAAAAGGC

- Variants of: B1
- protocol-text: fraction ligated after 30 min (ligated reads / total reads); higher = more ligase activity
- measurement-conditions: with F1*sub RNA substrate (template-directed ligation), 42 °C

{"columns": ["variant", "fraction ligated"],
 "data": [
  ["G31C A57T", 0.793],
  ["G38C A41C", 0.807],
  ["C26A T29A", 0.786],
  ["G31A G38T", 0.798],
  ["G38T T44A", 0.823],
  ["T43A A48G", 0.807],
  ["C40G T43C", 0.811],
  ["G46A", 0.812],
  ["T23G C26A", 0.789],
  ["T30A T35C", 0.816],
  ["A36T A41G", 0.794],
  ["C28A A37C", 0.779]
]}
